system: Mycobacterium intracellulare; test: microbe, parasite or virus in culture; assay type: cell-based; settings: Mycobacterium intracellulare; Experiment 2; three replicate columns; read-out: MIC (µg/ml) Mycobacterium intracellulare
*1 amine or outer side, *2 acyl side, *3 side chain or, on linkers, in order; H or OH if unused. Where a SMILES comes first, the peptide text is derived from it. [ ]: non-standard residue; d: D form. X1 = C#CCn1cc(C[C@H](N[*:1])C(=O)[*:2])c2ccccc21; NMeLeu(5-OH,4R) = CN[C@@H](C[C@@H](C)CO)C(=O)O; Phe(βR-OMe) = CO[C@H](c1ccccc1)[C@H](N)C(=O)O; Trp(1-Me) = Cn1cc(C[C@H](N)C(=O)O)c2ccccc21; NMeL = CN[C@@H](CC(C)C)C(=O)O; Pra = C#CC[C@H](N)C(=O)O
READOUT_LABEL: MIC (µg/mL)
State the answer as a number, implicitly in µg/mL.

COc1c(N2C[C@@H]3CCCN[C@@H]3C2)c(F)cc2c(=O)c(C(=O)O)cn(C3CC3)c12 [Moxifloxacin, reference compound]    0.5

## Task Need MIC, item CC[C@H]1OC(=O)[C@H](C)[C@@H](O[C@H]2C[C@@](C)(OC)[C@@H](O)[C@H](C)O2)[C@H](C)[C@@H](O[C@@H]2O[C@H](C)C[C@H](N(C)C)[C@H]2O)[C@](C)(OC)C[C@@H](C)C(=O)[C@H](C)[C@@H](O)[C@]1(C)O [Clarithromycin, reference compound]
## Result 0.13

## Task Need MIC, item C#CCn1cc(C[C@@H]2NC(=O)[C@H](C(C)C)NC(=O)[C@H](CC(C)C)N(C)C(=O)[C@H](C(C)C)NC(=O)[C@H]([C@H](OC)c3ccccc3)NC(=O)[C@H](C)NC(=O)[C@H](C[C@@H](C)CO)N(C)C2=O)c2ccccc21 [Compound 5] (cyclo(A[Phe(βR-OMe)]V[NMeL]V[X1][NMeLeu(5-OH,4R)]))
## Result 5.88

## Task Need MIC, item C#CC[C@@H]1NC(=O)[C@H](CC(C)C)N(C)C(=O)[C@H](C(C)C)NC(=O)[C@H]([C@H](OC)c2ccccc2)NC(=O)[C@H](C)NC(=O)[C@H](C[C@@H](C)CO)N(C)C(=O)[C@H](Cc2cn(C)c3ccccc23)NC1=O [Compound 10] (cyclo(A[Phe(βR-OMe)]V[NMeL][Pra][Trp(1-Me)][NMeLeu(5-OH,4R)]))
## Result 11.4

## Task Need MIC, item NCC[C@H](O)C(=O)N[C@@H]1C[C@H](N)[C@@H](O[C@H]2O[C@H](CN)[C@@H](O)[C@H](O)[C@H]2O)[C@H](O)[C@H]1O[C@H]1O[C@H](CO)[C@@H](O)[C@H](N)[C@H]1O [Amikacin, reference compound]
## Result 0.5

// data source = paper PMC10914731
